All figures here come from paper PMC10484734.

In this section, each of the variants is paired with its reported ratio to parent.
B1: recombinant human RAD51 [human] / His6-Thioredoxin-RAD54-Flag (recombinant human RAD54, wild type) [human] (parent complex)
chain 1: MAMQMQLEANADTSVEEESFGPQPISRLEQCGINANDVKKLEEAGFHTVEAVAYAPKKELINIKGISEAKADKILAEAAKLVPMGFTTATEFHQRRSEIIQITTGSKELDKLLQGGIETGSITEMFGEFRTGKTQICHTLAVTCQLPIDRGGGEGKAMYIDTEGTFRPERLLAVAERYGLSGSDVLDNVAYARAFNTDHQTQLLYQASAMMVESRYALLIVDSATALYRTDYSGRGELSARQMHLARFLRMLLRLADEFGVAVVITNQVVAQVDGAAMFAADPKKPIGGNIIAHASTTRLYLRKGRGETRICKIYDSPCLPEAEAMFAINADGVGDAKD
chain 2: MRRSLAPSQLAKRKPEGRSCDDEDWQPGLVTPRKRKSSSETQIQECFLSPFRKPLSQLTNQPPCLDSSQHEAFIRSILSKPFKVPIPNYQGPLGSRALGLKRAGVRRALHDPLEKDALVLYEPPPLSAHDQLKLDKEKLPVHVVVDPILSKVLRPHQREGVKFLWECVTSRRIPGSHGCIMADEMGLGKTLQCITLMWTLLRQSPECKPEIDKAVVVSPSSLVKNWYNEVGKWLGGRIQPLAIDGGSKDEIDQKLEGFMNQRGARVSSPILIISYETFRLHVGVLQKGSVGLVICDEGHRLKNSENQTYQALDSLNTSRRVLISGTPIQNDLLEYFSLVHFVNSGILGTAHEFKKHFELPILKGRDAAASEADRQLGEERLRELTSIVNRCLIRRTSDILSKYLPVKIEQVVCCRLTPLQTELYKRFLRQAKPAEELLEGKMSVSSLSSITSLKKLCNHPALIYDKCVEEEDGFVGALDLFPPGYSSKALEPQLSGKMLVLDYILAVTRSRSSDKVVLVSNYTQTLDLFEKLCRARRYLYVRLDGTMSIKKRAKVVERFNSPSSPDFVFMLSSKAGGCGLNLIGANRLVMFDPDWNPANDEQAMARVWRDGQKKTCYIYRLLSAGTIEEKIFQRQSHKKALSSCVVDEEQDVERHFSLGELKELFILDEASLSDTHDRLHCRRCVNSRQIRPPPDGSDCTSDLAGWNHCTDKWGLRDEVLQAAWDAASTAITFVFHQRSHEEQRGLR

Variants of: B1
METHOD SUMMARY: pull-down (silver-stained gel, quantified); read off a plot

- SEQUENCE VARIANT: "chain 2 T41D"
  ratio to parent: "~0.25"
- SEQUENCE VARIANT: "chain 2 T59D"
  ratio to parent: "~0.58"
- SEQUENCE VARIANT: "chain 2 T700D"
  ratio to parent: "~1.3"
- SEQUENCE VARIANT: "chain 2 T41D, chain 2 T59D"
  ratio to parent: "~0.41"

Request: # input variant: chain 2 T41D, chain 2 T59D, chain 2 T700D ; wanted: its ratio to parent
Response: ~0.27
